# tgt: T1, human Aβ (1-40) peptide (human)
# T1 construct: also called Aβ1-40 fibers
# test-protocol: SPR, kinetic fit, immobilized fibers;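 further: surface plasmon resonance on a Biacore chip bearing in vitro formed Aβ1-40 or Aβ1-42 fibers, KD taken as koff/kon by fitting time-resolved sensor responses, based on total Fab concentration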
Property: Kd; scope: individual binders
recorded-metric: Kd (nM)

[
  {
    "binder": "MS-Roche #3.3H1×3.4L9 Fab (Fab, V domains shown, cross-cloned Fab) VH: QLVESGGGLVQPGGSLRLSCAASGFTFSSYAMSWVRQAPGKGLEWVSVISEKSRFIYYADSVKGRFTISRDNSKNTLYLQMNSLRAEDTAVYYCARLTHYARYYRYFDVWGQGTLVTVSS VL: DIVLTQSPATLSLSPGERATLSCRASRRIHVYYLAWYQQKPGQAPRLLIYGASSRATGVPARFSGSGSGTDFTLTISSLEPEDFATYYCQQTYDYPPTFGQGTKVEIKR",
    "recorded-metric": "Kd",
    "recorded-measurement": 2.16
  },
  {
    "binder": "MS-Roche #3.6H5×3.6L2 Fab (Fab, V domains shown, cross-cloned Fab; VH entry starts at QLVESGG) VH: QLVESGGGLVQPGGSLRLSCAASGFTFSSYAMSWVRQAPGKGLEWVSAISESGKTKYYADSVKGRFTISRDNSKNTLYLQMNSLRAEDTAVYYCARLTHYARYYRYFDVWGQGTLVTVSS VL: DIVLTQSPATLSLSPGERATLSCRASQFLSRYYLAWYQQKPGQAPRLLIYGASSRATGVPARFSGSGSGTDFTLTISSLEPEDFAVYYCQQTYNYPPTFGQGTKVEIKR",
    "recorded-metric": "Kd",
    "recorded-measurement": 1.26
  }
]
